test system: MDA-MB-435; experiment: NCI tumour cell line growth inhibition, 48 h
The source made the active and inactive calls. Rule as the data show it: active = GI50 up to about 1.1 µM and inactive = higher.
Hi there, use one of these labels in your reply, thanks! TRUE = active, FALSE = inactive

In: Each compound tested received a call. Report the one for "CC(=O)OC[C@@H](OC(C)=O)[C@@H](OC(C)=O)[C@H]1OC[C@@H]2C[C@H]([C@H]1OC(C)=O)N(Cc1ccccc1)O2" .
Out: FALSE

In: Same lookup for CC(C)(C)[Si](C)(C)OCC1OC(n2cnc3c(=O)[nH]cnc32)CC1O (stereo not given) , please.
Out: FALSE

In: Further, for COc1cc2c(cc1OC)-c1cc3ccc(OC)c(OC)c3c[n+]1CC2 [PALMATINE CHLORIDE] ?
Out: FALSE

In: Quick one: "CC(=O)c1ccc(O)c(CN(C2CCCCC2)C2CCCCC2)c1O"
Out: FALSE

----------
Each entry below carries its recorded GI50.
tested on: SK-MEL-5; assay: NCI tumour cell line growth inhibition, 48 h
Active and inactive are the calls of the source. Cut-off read from the data, not from the text of the source: active = GI50 up to about 1.1 µM and inactive = higher.

Here are 3 compounds together with their reported answers.
• CC1=NN(c2nc(N)nc(/C(C#N)=C\c3cccc([N+](=O)[O-])c3)n2)C(C)(C)C1 = 20.5 µM (inactive)
• c1ccc2c(c1)CCN2CCc1c[nH]c2ccccc12 = > 10 µM (inactive)
• O=C1C[C@H](c2ccccc2)C2(C(=O)c3ccccc3C2=O)[C@@H](c2ccccc2)C1 = 16.9 µM (inactive)

In: Consider the compound shown here: COC(=O)C1Cc2c(n(C)c3ccccc23)C(c2ccccc2)N1 (centres undefined) What is its recorded GI50?
Out: 21.1 µM (inactive)

In: What do we get for "COC(=O)c1c(O)c(C#N)c2[nH]c3ccccc3n2c1=O" ?
Out: > 100 µM (inactive)

In: Another: "COc1ccc([C@@H]2CC(=O)NCCCNCCCCNCCCN2)cc1"
Out: > 100 µM (inactive)

----------
system: SN12C; test: NCI tumour cell line growth inhibition, 48 h
Activity calls are given as the source filed them. Cut-off read from the data, not from the text of the source: active = GI50 up to about 1.1 µM and inactive = higher. Where a SMILES comes first, the peptide text is derived from it. [ ]: non-standard residue; d: D form. The star is where a group is joined. NMeF = CN[CH](Cc1ccccc1)C(=O)O; NMeV = CN[CH](C(=O)O)C(C)C; Boc = CC(C)(C)OC(=O)*; OBn = c1ccc(CO*)cc1
Overview of recorded GI50 for various compounds

• COc1ccc(/N=C(/SS/C(=N/c2ccc(OC)cc2)c2ccc([N+](=O)[O-])o2)c2ccc([N+](=O)[O-])o2)cc1 = 1.95 µM (inactive)
• CC(=O)N/C(=C\c1ccc(/C=C(\NC(C)=O)C2=NC3C(=O)c4ccccc4C(=O)C3N2)cc1)C1=NC2C(=O)c3ccccc3C(=O)C2N1 (centres undefined) = 22.6 µM (inactive)
• CC(C)C(NC(=O)OC(C)(C)C)C(=O)N(C)C(Cc1ccccc1)C(=O)N(C)C(C(=O)N(C)C(C(=O)OCc1ccccc1)C(C)C)C(C)C (centres undefined) (Boc-V[NMeF][NMeV][NMeV]-OBn; configuration not given here) = > 100 µM (inactive)
• Cc1cc2ccc(N)nc2nc1O = > 100 µM (inactive)
• O=c1c2c(c1=O)-c1ccccc1CN2 = > 100 µM (inactive)

In: Report GI50 for O=C1C2c3[nH]c4ccccc4c3C3CCCCC3C2C(=O)N1c1ccccc1 (centres undefined) please.
Out: > 100 µM (inactive)

In: Next compound: "O=S(O)CCCCCSSc1ccc(Cl)cc1"
Out: 16 µM (inactive)

In: Same for O/N=C1/C(=C/c2ccc3c(c2)OCO3)CCCC1C(NO)c1ccc2c(c1)OCO2 (centres undefined)
Out: 21.3 µM (inactive)

In: Quick one: "CN(C)CCCNc1ccc2ncn3c4ccccc4c(=O)c1c23"
Out: 11.5 µM (inactive)

In: What about this compound? COC(=O)[C@H](C)[C@H]1CC[C@@](C)([C@H]2CC3C(C)(C)[C@H]4CCC(C)=C[C@H]4C[C@@]3(C)O2)OO1 (some centres undefined)
Out: 11.1 µM (inactive)

In: Okay, and "CCc1cc(C(=O)OC)cn1C(=N)c1ccc(Cl)cc1" ?
Out: > 100 µM (inactive)

----------
tested on: M14; experiment: NCI tumour cell line growth inhibition, 48 h
Active and inactive are the calls of the source. Rule as the data show it: active = GI50 up to about 1.1 µM and inactive = higher.
Outcome measure: GI50

Examples with their reported GI50 follow.
* COc1ccc(N2C(=O)C3ON(C(C(N)=O)c4ccccc4)C(c4ccc(-c5ccccc5)cc4)C3C2=O)cc1 (stereo not given) | 48.4 µM (inactive)
* C(/C=N/N=C1NCCCN1)=N\N=C1NCCCN1 | > 100 µM (inactive)
* CSC(=S)N/N=C/c1ccccc1 | 29.4 µM (inactive)
* CCNc1nc2c(ncn2C2CC(O)C(COP(=O)(O)O)O2)c(=O)[nH]1 (stereo not given) | > 100 µM (inactive)
* O=C(CCc1ccccc1)ON1C(=S)NC(c2ccccc2)(c2ccccc2)C1=S | 42.1 µM (inactive)

In: Any idea what its GI50 is? The molecule is "O=c1c2c(c1=O)-c1ccccc1CN2"
Out: > 100 µM (inactive)

In: Another molecule: O=[N+]([O-])c1ccc2c(c1)N=C1OC(c3c[nH]c4ccc(COc5ccccc5)cc34)C(O)=C1N2 (stereo not given)
Out: > 100 µM (inactive)

In: Thanks! And "COc1cc2c(cc1OCCCCOc1cc3c(cc1OC)C(=O)N1CCC[C@H]1C(=O)N3)N=C[C@@H]1CCCN1C2=O" ?
Out: 12.9 µM (inactive)

In: Then this molecule: "NS(=O)(=O)c1ccc(NC(=O)Cc2nc3ccccc3s2)cc1"
Out: 15.7 µM (inactive)

In: Now try "COc1ccc(-c2cc(-c3ccc(Nc4ccnc5cc(C(F)(F)F)ccc45)cc3)nc(N)c2C#N)cc1" .
Out: 96.8 µM (inactive)

----------
tested on: SNB-19; assay: NCI tumour cell line growth inhibition, 48 h
The source made the active and inactive calls. Cut-off read from the data, not from the text of the source: active = GI50 up to about 1.1 µM and inactive = higher.
Mark one answer only. Choices: 1.0 = active, 0.0 = inactive

In: Hi team, can someone confirm the assay call for CC1c2[nH]c3ccccc3c2CCN1O (stereo not drawn) ?
Out: 0.0

In: Lookup "CCOC(=O)[C@@H]1C[C@H]1c1ccc(O)c(O)c1"
Out: 0.0

In: Also need "CCN(CC)C(=S)Nc1ccc(-c2cc3ccc(O)cc3oc2=O)cc1" , thanks.
Out: 0.0

In: Try the compound "Cc1ccc(Nc2cc(=O)[nH]c(=S)[nH]2)cc1"
Out: 0.0

In: Also need "O=C1/C(=C/c2ccc(Cl)cc2)CNC/C1=C\c1ccc(Cl)cc1" , thanks.
Out: 0.0

In: Next compound: "O=C1CSC2(CCN(CCCN3c4ccccc4Sc4ccc(Cl)cc43)CC2)N1"
Out: 0.0

In: Same question, CC(C)C1CNC(=O)C2(/C=N/C(C(C)C)CNC(=O)C3(/C=N/1)CCCO3)CCCO2 (stereo not drawn) this time
Out: 0.0

In: Item: "CC(C)(C)OC(=O)NCC(c1c[nH]c2ccccc12)c1c[nH]c2ccccc12"
Out: 0.0

In: Next up: CSCCC(N)C(=O)NCCNc1ccc(NCCNC(=O)C(N)CCSC)c2c1C(=O)c1ccccc1C2=O (stereo not drawn)
Out: 1.0

In: Now consider "COc1ccc(C(=O)O)c2c(=O)c3ccccc3[nH]c12" and answer again.
Out: 0.0

In: Could you do the same for "NC(=S)N/N=C/c1ccc(OC(=O)COc2ccccc2Cl)cn1" , please?
Out: 0.0

In: Another compound to look at: Cc1c2n(c(=O)[nH]c1=O)C1OC(CO)C(O2)C1N=[N+]=[N-] (stereo not drawn)
Out: 0.0

In: Please answer likewise for "CC(C)(C)/N=C\N1CCC(C(c2ccccc2)c2ccccc2)CC1"
Out: 0.0

In: Another compound to look at: "COC(=O)C1(Cc2ccc3c(c2)CCC3)Cc2ccccc2C1"
Out: 0.0

In: Repeat for the following compound: "Cc1c2c(cc3c1C(=O)C(O)=C([C@@H](C)CO)C3=O)C(C)(C)CCC2"
Out: 0.0

In: Another: CCCCN1C(=O)CC2[C@@H]3CCc4cc(OC)ccc4C3CC[C@]2(C)C1=O (stereo partly drawn)
Out: 0.0

In: Similarly, "Cc1cc(NS(=O)(=O)c2ccc(Nc3c4ccccc4nc4c(C(=O)N5CCN(CCO)CC5)ccc(Cl)c34)cc2)no1" ?
Out: 0.0

In: Another compound to look at: "O=C(NCCCNC(=O)c1ccc2c(O)c(O)ccc2c1)c1ccc2c(O)c(O)ccc2c1"
Out: 0.0

In: Can you check "Nc1c(-c2cccc3ccccc23)c2ccc([N+](=O)[O-])cc2c(=O)n1-c1nc2ccccc2s1" next?
Out: 0.0
